system: LOX IMVI; test: NCI tumour cell line growth inhibition, 48 h
Active and inactive are the calls of the source. No stated cut-off is given here; in the data, active = GI50 up to about 1.1 µM and inactive = higher.
Assignment: determine reported GI50 for the given molecules.

As a guide, the following entries are already answered.
Molecule | Measure | Measured result
NS(=O)(=O)c1nnc(NC(=S)NC(=O)Nc2ccc(Cl)c(Cl)c2)s1 | GI50 | 17.1 µM (inactive)
Cc1ccc(/C(Cl)=C/C=C(C#N)C#N)cc1 | GI50 | 1.17 µM (inactive)
O=C1c2cc3c(cc2CC12Cc1ccc4c(c1C2=O)CCC4)CCC3 (stereo not given) | GI50 | > 100 µM (inactive)
c1ccc([P+](CCC[P+](c2ccccc2)(c2ccccc2)c2ccccc2)(c2ccccc2)c2ccccc2)cc1 | GI50 | 23.7 µM (inactive)

Shift focus to the following entry.
**Query** What value of GI50 has been reported for the following molecule? CCOC1NC(/N=C/c2ccc(OC)cc2)=C(C#N)C1C#N (stereo not given)
**Result** 44.6 µM (inactive)
